# SYSTEM NAME: GSK3A (Homo sapiens, UniProt P49840)
# Sequence (P49840 whole entry): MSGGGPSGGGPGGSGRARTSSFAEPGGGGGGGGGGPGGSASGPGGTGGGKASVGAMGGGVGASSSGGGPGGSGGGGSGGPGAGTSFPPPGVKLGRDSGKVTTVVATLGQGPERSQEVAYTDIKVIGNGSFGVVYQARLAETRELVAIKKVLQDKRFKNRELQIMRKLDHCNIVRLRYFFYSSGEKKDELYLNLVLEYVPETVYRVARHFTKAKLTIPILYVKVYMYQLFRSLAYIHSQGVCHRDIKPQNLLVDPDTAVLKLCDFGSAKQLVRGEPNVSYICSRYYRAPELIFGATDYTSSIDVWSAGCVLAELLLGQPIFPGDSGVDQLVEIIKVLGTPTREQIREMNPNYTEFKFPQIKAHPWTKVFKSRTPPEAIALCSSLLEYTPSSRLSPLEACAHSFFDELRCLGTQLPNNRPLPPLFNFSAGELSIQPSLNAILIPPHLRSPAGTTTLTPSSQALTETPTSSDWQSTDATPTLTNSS
# ASSAY: NanoBRET cellular target engagement assay, Nanoluc-GSK3A in HEK293 cells
# CONDITION SUMMARY: NanoBRET GSK3α IC50, HEK293 cells, tracer K-8, 2 hours, 37° C
IC50 strictly under 3 nM means met; at 3 nM or over means not met.

Challenge: Below 3 nM on IC50? Entry Cc1cc(C(F)(F)F)cc(C)c1-n1cnc(N)c(C(=O)Nc2cncc([C@H]3CCCCN3)c2)c1=O
Response given: not met

Challenge: Below 3 nM on IC50? Entry CCOc1cc(Cl)c(-n2cnc(N)c(C(=O)Nc3cncc(C(COC)NC)c3)c2=O)c(Cl)c1 (single isomer, unassigned)
Response given: met

Challenge: Below 3 nM on IC50? Entry COc1cc(Cl)c(-n2cnc(N)c(C(=O)Nc3cncc([C@H]4CCC[C@H](C)N4)c3)c2=O)c(Cl)c1 (single isomer, unassigned) [Example 81]
Response given: met

Challenge: Below 3 nM on IC50? Entry Nc1ncn(-c2c(Cl)cc(C(F)F)cc2Cl)c(=O)c1C(=O)Nc1cncc([C@@H]2COCCCN2)c1 (single isomer, unassigned)
Response given: met

Challenge: Below 3 nM on IC50? Entry Nc1ncn(-c2c(Cl)cccc2Cl)c(=O)c1C(=O)Nc1cccc([C@H]2CC[C@H](CO)N2)c1 (single isomer, unassigned)
Response given: not met

Challenge: Below 3 nM on IC50? Entry CCOc1cc(Cl)c(-n2cnc(N)c(C(=O)Nc3cncc(C4COCCCN4)c3)c2=O)c(Cl)c1 (single isomer, unassigned)
Response given: not met

---

# SYSTEM NAME: GSK3B (Homo sapiens)
# Sequence (P49841 whole entry): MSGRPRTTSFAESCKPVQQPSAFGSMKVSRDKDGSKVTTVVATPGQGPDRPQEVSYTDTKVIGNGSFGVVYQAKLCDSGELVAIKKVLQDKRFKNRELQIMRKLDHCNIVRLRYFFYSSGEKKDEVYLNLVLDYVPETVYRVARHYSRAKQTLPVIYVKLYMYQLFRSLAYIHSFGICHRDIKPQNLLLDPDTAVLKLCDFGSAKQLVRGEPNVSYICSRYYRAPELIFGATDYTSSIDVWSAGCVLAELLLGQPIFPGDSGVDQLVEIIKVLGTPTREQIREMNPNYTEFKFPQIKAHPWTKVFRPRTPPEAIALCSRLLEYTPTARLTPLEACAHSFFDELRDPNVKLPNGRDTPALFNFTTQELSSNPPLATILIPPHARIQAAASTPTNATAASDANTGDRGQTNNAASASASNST
# ASSAY: NanoBRET cellular target engagement assay, Nanoluc-GSK3B in HEK293 cells
# Format: cell-based
# Design: expressed in transfected cells
# CONDITION SUMMARY: NanoBRET GSK3β IC50, HEK293 cells, tracer K-8, 2 hours, 37° C
Counter-ions that a name gives are not always drawn.
PROPERTY MEASURED: IC50 (nM)
// note: answer is a bare numeric in nM

Looking up Cc1cc(C(F)(F)F)cc(C)c1-n1cnc(N)c(C(=O)Nc2cncc(C3CCC(C)N3)c2)c1=O (single isomer, unassigned) , I found its IC50 recorded as 543

Looking up NCc1cccc(NC(=O)c2c(N)ncn(-c3c(Cl)cccc3Cl)c2=O)c1OC(F)F [Example 170, trifluoroacetate] , I found its IC50 recorded as 526

Looking up CCOCc1cc(Cl)c(-n2cnc(N)c(C(=O)Nc3cncc(C(N)CC)c3)c2=O)c(Cl)c1 (single isomer, unassigned) , I found its IC50 recorded as 81.7

Looking up COCc1cc(Cl)c(-n2cnc(N)c(C(=O)Nc3cncc(CNC(C)C)c3)c2=O)c(Cl)c1 , I found its IC50 recorded as 489

Looking up COc1cc(Cl)c(-n2cnc(N)c(C(=O)Nc3cncc([C@@H](C)N)c3)c2=O)c(Cl)c1 (single isomer, unassigned) , I found its IC50 recorded as 363

Looking up CCNCc1cncc(NC(=O)c2c(N)ncn(-c3c(Cl)cc(CC(F)(F)F)cc3Cl)c2=O)c1 , I found its IC50 recorded as 385

Looking up CCOc1cc(Cl)c(-n2cnc(N)c(C(=O)Nc3cncc([C@@H](C)N)n3)c2=O)c(Cl)c1 (single isomer, unassigned) , I found its IC50 recorded as 187
